target or system: adenosine 1 receptor (Homo sapiens, UniProt P30542)
Sequence (P30542 whole entry): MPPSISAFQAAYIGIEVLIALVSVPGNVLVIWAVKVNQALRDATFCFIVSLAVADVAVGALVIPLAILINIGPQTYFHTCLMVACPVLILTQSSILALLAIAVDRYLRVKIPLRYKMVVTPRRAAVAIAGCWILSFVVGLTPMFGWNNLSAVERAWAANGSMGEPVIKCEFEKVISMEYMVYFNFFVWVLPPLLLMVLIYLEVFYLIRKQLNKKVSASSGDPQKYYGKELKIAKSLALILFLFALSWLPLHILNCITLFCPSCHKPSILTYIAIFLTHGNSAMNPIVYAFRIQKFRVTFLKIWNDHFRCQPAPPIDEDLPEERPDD
assay procedure: Agonist activity against adenosine 1 receptor (CHO cells, forskolin-enhanced cAMP/SPAP reporter)
Type: cell-based
test parameters: CHO cells transfected with human receptor; forskolin-enhanced cAMP via SPAP; mean of all the versions tested
The label depends only on A1 EC50 as a ratio of that of NECA: Satisfied if it is at least 200, Not satisfied if it is smaller.

{"columns": ["compound", "classification"],
 "data": [
  ["CCn1nnc([C@H]2O[C@@H](n3cnc4c(NCC(c5ccccc5)c5ccccc5)nc(NC5CCS(=O)(=O)CC5)nc43)[C@H](O)[C@@H]2O)n1.O=C(O)C(F)(F)F", "Not satisfied"],
  ["CCC(CC)Nc1nc(NCCN2CCOCC2)nc2c1ncn2C1OC(c2nnn(C(C)C)n2)C(O)C1O.O=CO.O=CO (stereo not shown)", "Not satisfied"],
  ["Cn1cnc(CCNc2nc(NCc3ccccc3)c3ncn([C@@H]4O[C@H](c5nnn(C)n5)[C@@H](O)[C@H]4O)c3n2)c1.O=CO", "Satisfied"],
  ["CCn1nnc(C2OC(n3cnc4c(NCc5ccccc5)nc(NC(CO)Cc5ccccc5)nc43)C(O)C2O)n1 (stereo not shown)", "Satisfied"],
  ["CCn1nnc([C@H]2O[C@@H](n3cnc4c(N)nc(NCCc5ccc(N)cc5)nc43)[C@H](O)[C@@H]2O)n1.O=CO", "Not satisfied"],
  ["CCn1nnc([C@H]2O[C@@H](n3cnc4c(NCc5cccc(I)c5)nc(NCCc5cn(C)cn5)nc43)[C@H](O)[C@@H]2O)n1", "Satisfied"],
  ["CCn1nnc(C2OC(n3cnc4c(NCCC5CCCCC5)nc(NC5CCNC5)nc43)C(O)C2O)n1 (stereo not shown) [Example 73]", "Satisfied"],
  ["CC(C)n1nnc(C2OC(n3cnc4c(NC5CCCC5)nc(NCCN5CCCCC5)nc43)C(O)C2O)n1 (stereo not shown)", "Not satisfied"],
  ["CC(=O)O.CC(=O)O.CCn1nnc(C2OC(n3cnc4c(NCCN5CCOCC5)nc(NCCc5cn(C)cn5)nc43)C(O)C2O)n1 (stereo not shown)", "Satisfied"],
  ["CCn1nnc(C2OC(n3cnc4c(NCCC(C)(C)C)nc(NC(CO)Cc5ccccc5)nc43)C(O)C2O)n1 (stereo not shown)", "Satisfied"],
  ["CC(C)n1nnc(C2OC(n3cnc4c(NC5CCCC5)nc(NCCN5CCCC5)nc43)C(O)C2O)n1.O=CO.O=CO (stereo not shown)", "Not satisfied"],
  ["CCn1nnc([C@H]2O[C@@H](n3cnc4c(NCC(c5ccccc5)c5ccccc5)nc(NC5CCSCC5)nc43)[C@H](O)[C@@H]2O)n1.O=C(O)C(F)(F)F", "Satisfied"],
  ["CC(C)n1nnc([C@H]2O[C@@H](n3cnc4c(NCc5ccccc5)nc(NCCc5cn(C)cn5)nc43)[C@H](O)[C@@H]2O)n1.O=CO", "Satisfied"]
]}
